- System: MvaT
- experimental-protocol: PBM 8-mer E-score (mean of HK and ME arrays) (E-score (dimensionless, -0.5 to 0.5)); higher = stronger relative binding preference
Whole data set: some 33,000 sequences, median “E-score (dimensionless, -0.5 to 0.5)” near -0.058, cut for the highest 2% near 0.35. The entries come from a sample that favours the highest values as a whole.
Outcome: Condition met for PBM 8-mer E-score of at least 0.2; Condition not met for anything lower.

Some entries whose results are on file:
sequence-input	assigned-class
AAACAATA	Condition met
AAACAACA	Condition met
AATCAATA	Condition met
AAACAAGA	Condition not met
GATCAATA	Condition not met

INPUT: I'd appreciate it if you could say whether ACAGGGCT has PBM 8-mer E-score at least equal to 0.2.
OUTPUT: Condition not met

INPUT: Query CAACAATA next
OUTPUT: Condition met

INPUT: Query TATCAATA next
OUTPUT: Condition met

INPUT: Query TAACAATA next
OUTPUT: Condition met

INPUT: Query AATAACCT next
OUTPUT: Condition met

INPUT: Query GATAACAA next
OUTPUT: Condition met

###

- System: MvaT
- experimental-protocol: PBM 8-mer E-score (mean of HK and ME arrays) (E-score (dimensionless, -0.5 to 0.5)); higher = stronger relative binding preference
The full ranking holds about 33,000 sequences; the median of “E-score (dimensionless, -0.5 to 0.5)” is about -0.058, and the highest 2% start at about 0.35. This excerpt belongs to a sample that is enriched for the highest values.
# PBM 8-mer E-score binned as zone 1 (below 0.1), zone 2 (0.1 to below 0.3), zone 3 (0.3 or more)

Some entries whose results are on file:
sequence-input	target-system	assigned-class
TATAATAA	MvaT	zone 3
CAGGTGAG	MvaT	zone 1
TCCTCAGA	MvaT	zone 1
ACATTGCC	MvaT	zone 1

INPUT: # classify by PBM 8-mer E-score band: CATTAATG
OUTPUT: zone 3

INPUT: Query ACAATACG next
OUTPUT: zone 1

###

- Test system: MvaT
- experimental-protocol: PBM 8-mer E-score (mean of HK and ME arrays) (E-score (dimensionless, -0.5 to 0.5)); higher = stronger relative binding preference
Whole data set: some 33,000 sequences, median “E-score (dimensionless, -0.5 to 0.5)” near -0.058, cut for the highest 2% near 0.35. The sample holds the highest values, similar sequences and a random draw of the others, so the mix is not that of the screen.
test-readout: PBM 8-mer E-score
Reply: number alone, nothing else.

Some solved entries appear below for comparison.
sequence-input	target-system	PBM 8-mer E-score
CTCTACTC	MvaT	-0.0821
AATGTTAC	MvaT	0.186
ATTGTTAA	MvaT	0.393
AAATATCT	MvaT	0.277
GATGTTAA	MvaT	0.277

# ---- query sequence ----
INPUT: Endpoint output: PBM 8-mer E-score of AGATATTA . Value?
OUTPUT: 0.412

###

- Test system: MvaT
- experimental-protocol: PBM 8-mer E-score (mean of HK and ME arrays) (E-score (dimensionless, -0.5 to 0.5)); higher = stronger relative binding preference
Whole data set: some 33,000 sequences, median “E-score (dimensionless, -0.5 to 0.5)” near -0.058, cut for the highest 2% near 0.35. For the sample, the highest values were picked, then their nearest neighbours and some sequences at random.
test-readout: PBM 8-mer E-score
Reply: number alone, nothing else.

Some solved entries appear below for comparison.
sequence-input	test-readout	numeric-result
CATTATCA	PBM 8-mer E-score	0.169
AAGAATAC	PBM 8-mer E-score	0.118
AAGAATAA	PBM 8-mer E-score	0.368
AATTATCA	PBM 8-mer E-score	0.325
AAAGTATG	PBM 8-mer E-score	0.216

INPUT: Endpoint output: PBM 8-mer E-score of CATTATGA . Value?
OUTPUT: 0.214

INPUT: Query TAGGGCAA next
OUTPUT: -0.0392

This collection of values is drawn from the supplement of paper PMC4466236.
